# Tested on: Wild type
# procedure-details: S. aureus survival, RN4220 and DeltatarO strains – OD600, teichoic acid synthesis inhibitors, primary screen (AID 463173)
# particulars: S. aureus RN4220 wild type/DeltatarO growth, OD600, 18 h, active compounds read low, screened at 18.75 µg/mL (by protocol)
In all, about 52,000 compounds went through this assay and about 1,700 (3.3%) were called active. What follows is part of a selection rich in actives, with near analogues and random picks from the rest.
outcome-measure: survival (%)

> print(dat)
                                 smiles.code  endpoint.value
 1  COC(=O)c1cc2occc2n1Cc1nc(-c2ccc(C)cc2)oc1C              48
 2    COC(=O)c1cc2oc(C)cc2n1Cc1c(C)cc(C)cc1C              33
 3       COC(=O)c1cc2oc(C)cc2n1Cc1cc(C)ccc1C              -2
 4  CCn1nc(-c2ccccc2)c(-c2ccccc2)c(C(=O)Nc2ccc(NC(C)=O)cc2)c1=O              88
 5  CCOC(=O)c1cc2oc(C)cc2n1CCCN1C(=O)c2ccccc2C1=O              -1
 6        COC(=O)c1cc2oc(C)cc2n1Cc1ccc(C)cc1              68
 7       CCOC(=O)c1cc2oc(C)cc2n1CC(=O)NC1CC1              94
 8  COC(=O)c1cc2oc(C)cc2n1CC(=O)Nc1cc(Cl)ccc1OC              88
 9  COc1ccccc1OCCn1cc(C(=O)c2cccs2)c2ccccc21             102
10  CCc1cccc(NC(=O)Cn2c(C(=O)OC)cc3occc32)c1              83
11           COC(=O)c1cc2occc2n1Cc1cccc(C)c1              -1
